// provenance: PubChem BioAssay (NCI)

Tested on: PC-3 prostate
ASSAY_NAME: NCI tumour cell line growth inhibition, 48 h
Exercise: for every item that follows, state its recorded TGI.

Please review the following examples before continuing.
| COMPOUND | VALUE_OBSERVED |
| --- | --- |
| COc1ccccc1/[N+]([O-])=C/c1ccccc1OC(=S)S | > 100 µM |
| CCCCn1c(C)c(C)c2c1NN=C(C#N)S2(=O)=O | > 100 µM |
| COc1cc2c3c(n(CCCO)c(=O)c2cc1OC)-c1cc2c(cc1C3=O)OCO2 | > 81.7 µM |
| C(=C\c1ccccc1)/Cn1nc(-c2ccccc2)nc1-c1cnccn1 | > 100 µM |
| Cc1ccc(/C(O)=C/c2nc3ccccc3nc2NC23CC4CC(CC(C4)C2)C3)cc1 | > 10 µM |

With those in mind, consider the next compound.
// compound COC(=O)C1=C(C(=O)OC)C2(c3ccccc3)c3ccccc3C(=O)C1N2C1CCCCC1 (stereo unspecified) , assay PC-3 prostate, TGI value: > 100 µM

* * *

System: CAKI-1 renal
ASSAY_NAME: NCI tumour cell line growth inhibition, 48 h
Please respond with reported TGI for every item in the list.

| COMPOUND | TGI |
| --- | --- |
| CC(=O)O[C@H]1CC[C@@]2(C)C(=CC[C@H]3[C@@H]4C[C@H](N5CCN(C)CC5)[C@H](OC(C)=O)[C@@]4(C)CC[C@@H]32)C1 | > 66.5 µM |

Quick batch: TGI for everything below.
1. N#CC12CCC(O)C(CC1)C2=O (stereo not drawn)
2. CC(C)(C)c1ccc(Oc2ccc(C#N)c(C#N)c2)c(C(C)(C)C)c1

Output:
1. > 100 µM
2. > 100 µM

* * *

Assignment: determine reported TGI for the given compounds.
Tested on: OVCAR-8 ovarian
ASSAY_NAME: NCI tumour cell line growth inhibition, 48 h

| COMPOUND | VALUE_OBSERVED |
| --- | --- |
| Cc1cc(N(CCC#N)CCC#N)ccc1N=Nc1ccccc1[N+](=O)[O-] | > 100 µM |
| O=P(Oc1ccccc1)(Oc1ccccc1)C(O)c1ccccc1 (configuration not stated) | > 100 µM |
| O=C1NC(=O)C2=C1CCC2O (configuration not stated) | > 100 µM |
| CCOC(=O)c1csc(NC(=O)CN2CCCCC2)n1 | > 100 µM |
| CC1=CCP(C(F)(F)F)P(C(F)(F)F)C1 (configuration not stated) | > 100 µM |
| CC(=O)CC(=O)CCCC(=O)Nc1ccc(Cl)cc1Cl | > 100 µM |
| CCCOP1(=O)C=C(C)C(Cl)=C(C)C1 (configuration not stated) | > 100 µM |
| Cc1ccc(C2=[N+]([O-])c3ccccc3C2=O)cc1 | 36 µM |
| N#Cc1c(-c2cccc(Br)c2)cc(-c2ccc(Cl)cc2)nc1N | > 100 µM |
| C[C@@H](Oc1cc(-c2cnn(C3CCNCC3)c2)cnc1N)c1c(Cl)ccc(F)c1Cl | > 10 µM |

I have 6 compounds here; please give me TGI for each one.
1. C(=C\c1ccccc1)/Cn1nc(-c2ccccc2)nc1-c1cnccn1
2. N#CC12CCC(O)C(CC1)C2=O (configuration not stated)
3. O=S(=O)(O)c1ccc(N=Nc2c(O)ccc3ccccc23)cc1
4. Nc1ccc(CCN2CCN(c3cccc(C(F)(F)F)c3)CC2)cc1
5. CC(C)(C)[Si](C)(C)OC1[C@@H](O[Si](C)(C)C(C)(C)C)[C@@H](CNC(=O)NC(=O)NC(=O)CI)O[C@H]1n1cnc2c(NC(=O)Nc3ccccc3)ncnc21 (some centres not stated)
6. Cc1cccc(/C=N/NC(=S)NC2CCCCC2)n1

Output:
1. > 100 µM
2. > 100 µM
3. > 100 µM
4. > 100 µM
5. 0.925 µM
6. > 69 µM

Form field TGI, entry "C=C1C(=O)O[C@H]2[C@H]1CC/C(COC(=O)/C=C/c1cccnc1)=C\CC[C@@]1(C)O[C@@H]21" : 13.9 µM
